- system tested: T1, Plasmodium falciparum Histidine Rich Protein-2 (Plasmodium falciparum)
- T1 construct: the construct used in the assay is not described; also called Pf.HRP-2
- T1 chain: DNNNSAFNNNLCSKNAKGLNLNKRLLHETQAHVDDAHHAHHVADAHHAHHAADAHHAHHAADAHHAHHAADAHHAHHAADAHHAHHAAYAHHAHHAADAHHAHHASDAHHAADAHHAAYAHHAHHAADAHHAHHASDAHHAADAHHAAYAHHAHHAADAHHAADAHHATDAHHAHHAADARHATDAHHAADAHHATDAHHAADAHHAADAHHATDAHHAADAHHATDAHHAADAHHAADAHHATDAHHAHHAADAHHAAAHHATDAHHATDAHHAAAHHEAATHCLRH
- assay text: assay not described; monoligand Cy(YKYYR)
Ends that are not written are not given here.
measurement name: pEC50
One number for each entry, as −log10 of the molar value.

Exercise: What value of measured pEC50 is listed for YKYYR (also: cyclic, ring type not given here, also called cyclic YKYYR) [Cy(YKYYR)] ?
Solution: 6.66
